Source: PubChem BioAssay (NCI)

# Test system: NCI-H522 lung
# METHOD: NCI-60 one-dose screen, 48 h
# TEST_CONTEXT: 10 µM unless noted
This is part of a sample that, as a whole, favours compounds with a hit. Of some 83,000 tested, about 20% had one in any assay. Activity calls are given as the source filed them. The calls were made as follows: active = growth percent below 10; inactive = the rest.
// allowed return values: y (active), n (inactive)

IN: Identify the outcome logged in this assay for the compound shown: Nc1c(C(=O)Nc2ccccn2)sc2nc3c(cc12)CCCCC3
OUT: y

IN: And CC1CCN(CCCCCOc2ccc3oc4cc(Cl)ccc4c(=O)c3c2)CC1 ?
OUT: n

IN: And Nc1cccc(C(=O)Nc2ccc3c(O)c(N=Nc4ccc(N=Nc5ccc(S(=O)(=O)O)cc5)cc4)c(S(=O)(=O)O)cc3c2)c1 ?
OUT: n

IN: And COc1ccc(-c2nnc(N3CCN(C(=O)CN4CCN(c5ccc(OC)cc5)CC4)CC3)nc2-c2ccc(OC)cc2)cc1 ?
OUT: y

IN: And CC(=O)c1c(OCC#N)ccc2c(C)cc(=O)oc12 ?
OUT: n

IN: And C=CCn1c(CN2CCN(c3cc4c(cc3F)c(=O)c(C(=O)O)cn4C3CC3)CC2)n[nH]c1=S ?
OUT: n

IN: And N#Cc1nc(-c2ccccc2)oc1S(=O)(=O)NCC(c1ccc(Cl)cc1)N1CCCCC1 (stereo unspecified) ?
OUT: y

IN: And COc1cc2c(cc1OC)C(Sc1ccc(Cl)cc1)c1c(nc(N)c(C#N)c1N)O2 (stereo unspecified) ?
OUT: y

IN: And CSc1nc(-c2ccco2)c2c(N)[nH]nc2n1 ?
OUT: n

IN: And N#Cc1c(-c2ccc(F)cc2)nc(N=Nc2c(O)[nH]c3ccccc23)nc1N1CCOCC1 ?
OUT: n

IN: And CCOC(=O)c1cnn(-c2nc(-c3ccc(F)cc3)c(C#N)c(N3CCOCC3)n2)c1N ?
OUT: n

IN: And COc1ccc2oc(=O)cc(-c3nc4ccc(N)cc4[nH]3)c2c1 ?
OUT: n

IN: And COc1cc2c(Nc3ccc(NC(=O)Nc4ccc(Cl)c(C(F)(F)F)c4)c(Cl)c3)ncnc2cc1OCCCN1CCN(C)CC1 ?
OUT: y

IN: And CC(C)(C)c1ccc2oc(=O)n(SC(Cl)(Cl)Cl)c2c1 ?
OUT: n

IN: And C=C1C(=O)O[C@H]2[C@H]1CC/C(COC(=O)NCC(=O)Nc1ccc(OC)c(C(N)=O)c1O)=C\CC[C@@]1(C)O[C@@H]21 ?
OUT: y

IN: And C#C[C@@]1(O)[C@@H](CO)O[C@@H](n2cc(Br)c3c(N)ncnc32)[C@@H]1O ?
OUT: y

IN: And CC1=C/C(=N\N=C2/C=C(C)CC(C)(C)C2)CC(C)(C)C1 ?
OUT: n

IN: And c1ccc(-c2cn3ccnc3c(-c3ccc4c(c3)ncn4C3CCCCC3)n2)cc1 ?
OUT: n

IN: And CNc1cccc2c1C(=O)c1cccc(N)c1C2=O ?
OUT: n

IN: And CC1CCCN(CCCCCOc2ccc3oc4ccc(Cl)cc4c(=O)c3c2)C1 (stereo unspecified) ?
OUT: n

IN: And C=C(C)[C@@H]1CC[C@]2(C(=O)OCCCC[P+](c3ccccc3)(c3ccccc3)c3ccccc3)CC[C@]3(C)[C@H](CC[C@@H]4[C@@]5(C)CC[C@H](OC(=O)C(Cl)Cl)C(C)(C)[C@@H]5CC[C@]43C)[C@@H]12 ?
OUT: y

IN: And Cc1nccc2c3ccc(OCc4cn(-c5ccccc5)nn4)cc3n(CCCc3ccccc3)c12 ?
OUT: n

IN: And c1cc(CNC23CC4CC(CC(C4)C2)C3)cc(C[N+](Cc2cccc(CNC34CC5CC(CC(C5)C3)C4)c2)(Cc2cccc(CNC34CC5CC(CC(C5)C3)C4)c2)Cc2cccc(CNC34CC5CC(CC(C5)C3)C4)c2)c1 (stereo unspecified) ?
OUT: y

IN: And Cc1ccccc1NC(=O)c1sc2nc(C)c(C(C)O)cc2c1N (stereo unspecified) ?
OUT: n

IN: And O=C1C(=O)c2c(nc3ccc(Br)cn23)-c2ccccc21 ?
OUT: y

IN: And N#Cc1c(-c2ccc(F)cc2)nc(N/N=C/c2c[nH]c3ccccc23)nc1N1CCOCC1 ?
OUT: n

IN: And COc1ccc(/C=C(/C(=O)N2CCCC2)c2cc(OC)c(OC)c(OC)c2)cc1 ?
OUT: n

IN: And Cc1nccc2c3ccc(OCc4cn(-c5ccc(Cl)cc5)nn4)cc3n(CC(C)C)c12 ?
OUT: y

IN: And O=C(Nc1cccc(-c2cccc(F)c2)c1)C1CCN(Cc2cccc3cccnc23)CC1 ?
OUT: n

IN: And COc1ccccc1Nc1nnc(-c2ccc(Cl)cc2)o1 ?
OUT: n

IN: And COc1ccc2nc(-c3ccc(Cl)cc3)cc(C(=O)N3N=C(c4ccc(N)cc4)CC3c3ccccc3)c2c1 (stereo unspecified) ?
OUT: n

IN: And COc1cc(NCC(=O)Nc2cc(Nc3ccc(C)cc3)ncn2)c(Cl)c(OC)c1Cl ?
OUT: n

IN: And C=C1C(=O)O[C@H]2[C@H]1CC/C(COC(=O)c1cn(C)c3ccccc13)=C\CC[C@@]1(C)O[C@@H]21 ?
OUT: y

IN: And CN1CCN(C(=O)[C@@]2(C)CC[C@]3(C)CC[C@]4(C)C(=CC[C@@H]5[C@@]6(C)CC[C@H](OC(=O)c7cccnc7)C(C)(C)[C@@H]6CC[C@]54C)[C@@H]3C2)CC1 ?
OUT: n

IN: And COC(=O)c1ccc(NC(=O)CSc2nc(-c3ccc(F)cc3)nc3ccccc23)cc1 ?
OUT: n

IN: And c1ccc(Sc2ncccn2)nc1 ?
OUT: n
